# key: entry, value: TD50
system: Primary T cells; test: Cytotoxicity, viability by flow cytometry; assay type: cell-based; conditions: Table 4; toxic dose 50%, viable cells
Measured Attribute: TD50

                                   compound  target_or_system  measured_attribute  observed_result
0  COc1ccccc1-c1cc(Nc2ccc(N(C)C)cc2)ncn1 [Example 5]   Primary T cells                TD50           >10 µM
1  COc1ccc(Nc2cc(-c3ccccc3OC)ncn2)cc1OCc1ccccc1 [Example 36]   Primary T cells                TD50            >5 µM
2  COc1ccc(Nc2cc(-c3ccccc3OC)ncn2)cc1CN1C(=O)c2ccccc2C1=O [Example 3]   Primary T cells                TD50            >5 µM

====

# key: entry, value: IC50
tested on: laboratory strain of HIV-1; assay: Antiviral Activity Against HIV (AV), p24 in infected activated primary T cells; type: cell-based; conditions: read-out: AV50; Table 5
Measured Attribute: IC50

>>> df
                                 cpd_smiles            target_or_system  observed_result
0  COc1ccccc1-c1cc(Nc2ccc(OC)c([N+](=O)[O-])c2)ncn1  laboratory strain of HIV-1         > 1.5 µM
1  COc1ccccc1-c1cc(Nc2ccc(N(C)C)c(Cn3cnc4ccccc43)c2)ncn1  laboratory strain of HIV-1           > 5 µM
2  COc1cc(Nc2cc(-c3ccccc3OC)ncn2)ccc1C(N)=O  laboratory strain of HIV-1           > 2 µM
3  CNC(=O)c1ccc(Nc2cc(-c3ccccc3OC)ncn2)cc1OC  laboratory strain of HIV-1          > 10 µM
4  COc1ccccc1-c1cc(Nc2ccc(O)c([N+](=O)[O-])c2)ncn1  laboratory strain of HIV-1         > 1.5 µM
5       COc1cc(Nc2cc(-c3ccccc3OC)ncn2)ccc1N  laboratory strain of HIV-1           > 2 µM
6      COc1ccc(Nc2cc(-c3ccccc3OC)ncn2)cc1CN  laboratory strain of HIV-1           > 1 µM
7  COc1ccc(Nc2cc(-c3ccccc3OC)ncn2)cc1CN1C(=O)c2ccccc2C1=O  laboratory strain of HIV-1           > 1 µM
8  COc1ccc(Nc2cc(-c3ccccc3OC)ncn2)cc1C(=O)O  laboratory strain of HIV-1          > 10 µM

====

target: human CDK9/CyclinT kinase complex (Homo sapiens (Human)); assay: In Vitro CDK9/CyclinT Assay (IMAP fluorescent polarization); format: biochemical
Sequence (P50750 whole entry): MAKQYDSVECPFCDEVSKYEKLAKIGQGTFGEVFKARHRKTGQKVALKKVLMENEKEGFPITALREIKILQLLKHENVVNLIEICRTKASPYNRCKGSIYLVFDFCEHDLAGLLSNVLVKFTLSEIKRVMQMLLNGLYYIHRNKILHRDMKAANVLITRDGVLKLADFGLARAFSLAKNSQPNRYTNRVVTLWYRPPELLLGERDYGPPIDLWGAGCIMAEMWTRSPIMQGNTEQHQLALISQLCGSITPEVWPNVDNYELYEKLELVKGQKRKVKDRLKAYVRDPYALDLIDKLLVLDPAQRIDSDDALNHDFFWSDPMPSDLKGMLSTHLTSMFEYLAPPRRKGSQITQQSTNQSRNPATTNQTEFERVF
Sequence (O60563 whole entry partner): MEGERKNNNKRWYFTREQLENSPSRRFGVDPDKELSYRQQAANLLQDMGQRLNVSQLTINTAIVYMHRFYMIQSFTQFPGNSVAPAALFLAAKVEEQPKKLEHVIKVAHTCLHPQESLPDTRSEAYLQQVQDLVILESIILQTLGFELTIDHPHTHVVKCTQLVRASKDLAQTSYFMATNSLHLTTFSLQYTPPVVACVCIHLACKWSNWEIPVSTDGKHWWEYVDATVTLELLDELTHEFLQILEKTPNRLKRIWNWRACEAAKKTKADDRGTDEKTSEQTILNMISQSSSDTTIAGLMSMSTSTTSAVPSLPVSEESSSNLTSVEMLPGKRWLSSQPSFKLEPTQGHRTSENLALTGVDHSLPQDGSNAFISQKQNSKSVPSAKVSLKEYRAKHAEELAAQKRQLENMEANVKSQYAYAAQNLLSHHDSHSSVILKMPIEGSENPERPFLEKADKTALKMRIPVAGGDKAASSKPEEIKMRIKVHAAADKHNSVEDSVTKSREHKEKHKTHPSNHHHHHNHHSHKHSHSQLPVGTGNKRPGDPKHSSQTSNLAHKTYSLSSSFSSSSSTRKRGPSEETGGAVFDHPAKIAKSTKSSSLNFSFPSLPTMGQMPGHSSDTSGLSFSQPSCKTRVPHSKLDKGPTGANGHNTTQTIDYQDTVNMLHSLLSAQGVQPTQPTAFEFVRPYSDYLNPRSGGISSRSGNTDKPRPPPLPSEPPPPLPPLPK
pIC50: −log10 of the molar value.
Measured Attribute: pIC50

>>> print(df.to_string())
                                  cpd_smiles  observed_result
 0  COc1ccc(Nc2cc(-c3ccccc3OC)ncn2)cc1OC(=O)C(C)(C)C           > 5.00
 1  COc1ccc(Nc2cc(-c3ccccc3OC)ncn2)cc1NC(=O)OCC(Cl)(Cl)Cl           > 5.00
 2  COc1ccc(Nc2cc(-c3ccccc3OC)ncn2)cc1C(=O)NCc1ccncc1           > 6.00
 3  COc1ccc(Nc2cc(-c3ccccc3OC)ncn2)cc1CNc1ccccc1           > 5.00
 4      COc1ccc(Nc2cc(-c3ccccc3OC)ncn2)cc1CN           > 6.00
 5  COc1cc(F)c(Nc2cc(-c3cc(F)ccc3OC)ncn2)cc1C(N)=O           > 6.00
 6  COc1cc(F)c(Nc2cc(-c3ccccc3OC)ncn2)cc1C(N)=O           > 6.00
 7  COc1ccc(-c2cc(Nc3ccc(OC)c([N+](=O)[O-])c3)ncn2)cc1           < 5.00
 8  COc1ccc(Nc2cc(-c3ccccc3OC)ncn2)cc1OCc1ccccc1           > 5.00
 9  COc1ccc(Nc2cc(-c3ccccc3OC)ncn2)cc1CNCc1ccccc1           > 6.00
10  CCOC(=O)c1cc(Nc2cc(-c3ccccc3OC)ncn2)ccc1Cl           > 6.00
11  COc1ccc(Nc2cc(-c3ccccc3OC)ncn2)cc1CN1C(=O)c2ccccc2C1=O           > 6.00
12  COc1ccccc1-c1cc(Nc2ccc(Cl)c(Cn3cnc4ccccc43)c2)ncn1           > 7.00
13  CCOc1cc(F)ccc1-c1cc(Nc2ccc(OC)c(C(N)=O)c2)ncn1           > 7.00
14   CCOc1ccc(Nc2cc(-c3ccc(F)cc3OC)ncn2)cc1O           > 6.00
15  COc1ccc(Nc2cc(-c3ccccc3OC)ncn2)cc1OC(C)=O           > 6.00
16  CCOc1cc(F)ccc1-c1cc(Nc2cc(C(N)=O)c(OC)cc2F)ncn1           > 6.00
17  COc1cc(F)ccc1-c1cc(Nc2cc(N)c(OC)c(F)c2)ncn1           > 6.00
18       COc1ccc(Nc2cc(-c3ccccc3OC)ncn2)cc1N           > 6.00
19  CCOc1ccccc1-c1cc(Nc2ccc(OC)c(C(N)=O)c2)ncn1           > 7.00
20  COc1ccc(Nc2cc(-c3ccccc3OC)ncn2)cc1Cn1cnc2ccccc21           > 7.00
21  COc1ccc(Nc2cc(-c3ccccc3OC)ncn2)cc1C(=O)NCCCN1CCN(C)CC1           > 6.00
